Tested on: K4 kissing-loop RNA reporter
test summary: apparent KD of K4 kissing-loop reporter; higher = weaker reporter binding
settings: Eterna round: R107; input ligand: theophylline 20 uM
Kindly return True if reported apparent KD of K4 kissing-loop reporter is no lower than 200 nM; return False if it is lower.

The following sequences have reported results that may help.
AUGUAUGAAUUAGGAUAUCGUUAGCCUUGCAUAUAUAUGAUAAAUGGAUAUGUCGUAGUGAUGUUACGAGAAGGAGUGUGGAGUA [KL-XFMN-B5]; False
UCGCCAAAGUCGGCCGCCACUCCGGGCCCUAUAAAUGGGCGCAGUGAUGUUGCGGCUAGGCCUCUGAGGACCGGGACUUUGUAGA [Esenusza]; True
UACCCGUGCUACUCCAUCCAUGCCACACCGCGAGGACCGGUACGGCCGCCACUCGUCGGAAAGUGAUGUUUUCAAACAAAGUUGC; True
UAGUCAUACAGAGGAUAUCGUAUGAGUGAUGUUCAAGUGCGUACAUCAACUUGAUGUACAGAUAGACGAGAAGGCUGUAUGACUA [FMB B SS t6]; True
AAAAUAAAUCAGUGAUGUUGGUGUCCAGAUACCAGCGACGAAAGUCGCCCUUGGCAGCUGUGGACGUACAAAAUAAGUACGUCCU [MatMod 22 - Jieux - Same State - Theophylline A]; True

In plain terms: is recorded apparent KD of K4 kissing-loop reporter at least 200 nM for AACCACUCGUUACAUCACUAUCGAGUGGAACGAGGACCGGUACGGCCGCCACUCGGUAACAAGCAGUGAUGUUGCUUGUAAGAAU [KL-SSTryp-A (BrourdMod)2 #dotplot2 strengthened] ?
True

Quick check: does GUUACGCAUGGAAGGAGCGCACUCCGGUUGAUCGACACAGUGAUGUUGUGGUUCAUUCGAAUGCAGGUAGGUCGCCAUGUGUAAC [Ex Arginine B K4 15] have apparent KD of K4 kissing-loop reporter greater than or equal to 200 nM?
True

Hi team, for GGAUAACAGGCAGGAUAUGCUUAGUAGUAAGGCCAUAUAUACGUAUAGAGUGAUGUUUUGUACAAGGCAGAAGGGCUAAAUCCAU [FMN B Excl V2 (+4G)] , is the recorded apparent KD of K4 kissing-loop reporter at or above 200 nM?
True

Can UGAUACCAGACUGAUACCAGCCAGUGAUGUUGGCUAAUCCGAGAAGGAGUCAAAGACUCCGGCCCUUGGCAGCAGUCUGGUAUCU [TheoBX 4 #SwitchBubble #StaticStem] be said to have apparent KD of K4 kissing-loop reporter at or above 200 nM?
False

Could you please find out whether UAUUAAUAAUUAUUCUAGUGAUGUUAGAUACGAGGACCGGUACGGCCGCCACUCGCUUAUUGGUUUAUAAAUUUUAUAUUAUUUA [JR_SSTryptoA_Sub017] has apparent KD of K4 kissing-loop reporter that meets 200 nM or exceeds it?
True

---

System: K4 kissing-loop RNA reporter;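 note: bound reporter read as fluorescence of individual clusters on recovered sequencing chips by microscopy, with normalized cluster intensities fitted with a binding model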
test summary: apparent KD of K4 kissing-loop reporter; higher = weaker reporter binding
settings: Eterna round: R107; input ligand: none
Label rule met when apparent KD of K4 kissing-loop reporter is at or above 300 nM; anything below gets rule not met.

UGCAUGCUUGUAGUGAUGUUACAAGAUGAUACCAGUGCUUUUUUGCACCCUUGGCAGCGUCAUAGUGCAUGCACGUCGAAAGACG; rule not met

Determine whether this sequence has apparent KD of K4 kissing-loop reporter no lower than 300 nM: GGCACUUUUGCUUGGAACCGUCAAGCUCUUUAGGAUAUCUGGAAACAGAGAAGGAAAGACCUACAGAGUGAUGUUCUGCGUGCCU
rule not met

Assess whether reported apparent KD of K4 kissing-loop reporter for UUCGAAAGUCGAAGGAGCGCUGGCGGUCAUAGACUAUAUCUGUAGUGAUGUUACAGAUUCCAGCAGGUAGGUCGCGACAGAGACA [Arg B SS t18b] sits at 300 nM or higher.
rule not met

Could you please find out whether AGUGAUGUGGGAAGGAGCGGUAUAAGAAUUCAGUGAUGUUGAAGUGUUGCAGAAAUAAAAGGCCAGGUAGGUCGCCUAGAUGUUA [KL-XARG B29] has apparent KD of K4 kissing-loop reporter that meets 300 nM or exceeds it?
rule met

Could you tell me if the measured apparent KD of K4 kissing-loop reporter of UUAGUUGAAAGUGAUACCAGACAAGUUAAGAGAAGAAAUUAAGUUGGAGUGAUGUUCCAAGUCCCUUGGCAGCACAUUGUAAUUU [Same State Theophylline B GF12] reaches 300 nM or more?
rule not met

Is apparent KD of K4 kissing-loop reporter for AUAGACUUGCAGUGAUGUUGCAAGUGAGACUAGGAUAUCAGGAAGCUGAGAAGGAGUCAUCUCCUUCAGACAUCACUAUGAAGGA [whbob_SS_FMNA__2th180] at or above 300 nM?
rule not met

---

System: MS2 coat protein
test summary: apparent KD of MS2 coat protein; designed switch direction (-1 OFF switch, 1 ON switch): 1; higher = weaker reporter binding
settings: input ligand: none
measurement label: apparent KD of MS2 coat protein (nM)
Give bare numbers, in nM.

Consider the worked cases shown below.
GCUCGCGACGCAGGAUAUGGGUGCCUGUACAUGAGGAUCACCCAUGUUAAGGGACGGAAAACGAACCAGAAGGGCGUCACGAGC [Ceusdian] (Eterna round: R96, puzzle: Same State NG 2); 1120
CCCAGCGUUACAGGAUAUGGUGAGGAUCACCCACUAGAAGGGUAAACAUGUGCGUCGGACAUGAGGAUCACCCAUGUAGGGCGU (Eterna round: R96, puzzle: Same State NG 1); 27
UGUUAUUAGACAGGAUAUUGAUUGUAAAGUUUUUACAUGAGGAUCACCCAUGUUGUUCAUUCGAACAAGAAGGGUCAAGUUUUU [JR_SSNG2_Sub018] (Eterna round: R96, puzzle: Same State NG 2); 137
UACAAACGCGGAGGAUAUGGGCGAGGCGCAGAGGUCUGCGUCAAAACAUGAGGAUCACCCAUGUCCCAGAAGGCCGCGCAAACU [Anorra] (Eterna round: R96, puzzle: Same State NG 2); 56.1
GCGAUCUACCGGAAGGUAGAUCGGCUUGUACAUGAGGAUCACCCAUGUCUGUACAAGCUUUUUGCUCGUCUUAUGGG [salish99-hsa-208a-66] (Eterna round: R96, puzzle: Sensor for hsa-mir-208a); 713

Please give apparent KD of MS2 coat protein, item by item, for the list that follows.
1. GGUAGGUUACUACCAAACAUGAGGAUCACCCAUGUUAAUGGGAAGGAUAUGGUACCUAUUUGGUACCAGAAGGUCCAAUUAAUU [JL Fiskers NG3ss - 2 mod 4] (Eterna round: R96, puzzle: Same State NG 3)
2. GCUGCAAGGGCAGGAUAUGGGUCCAAAGCGCAAGUGCGCUUUGGUACAUGAGGAUCACCCAUGUCCCAGAAGGGCCCAUGCGGC [Edenbiatar] (Eterna round: R96, puzzle: Same State NG 2)
3. GCUCGAUGAGCGGUUUACAUGAGGAUCACCCAUGUAAAUGGGCAGGAUAUUUACGUGCUUUGUGUAGAGAAGGGCCCAUCGAGC [SameState NG3 #75] (Eterna round: R96, puzzle: Same State NG 3)
4. CACAUGAGGAUCACCCAUGUCAGACAAAGGAGCAUGACGCUACAGGAUAUGUGAGCGACUAACGAAUAGAAGGGUAGCCAUCAC [Eternabot solution 27] (Eterna round: R96, puzzle: Same State NG 3)

1: 493; 2: 123; 3: 112; 4: 29.3

---

Tested on: MS2 coat protein
test summary: apparent KD of MS2 coat protein; designed switch direction (-1 OFF switch, 1 ON switch): -1; higher = weaker reporter binding
settings: input ligand: FMN 200 uM
Task for the reader: assign each of the following sequences its reported apparent KD of MS2 coat protein.

The cases that follow already have their apparent KD of MS2 coat protein on record.
UAGAUGCUCAGGGAGUGUGACAUGAGGAUCACCCAUGUGGUGGUAGGGAACAAGCUUUUUGCACGUACUUAUGAGUA [JR_SV3TOV1_Sub007] (Eterna round: R96, puzzle: Sensor v3, turn-off variant 1); 435 nM
UAACUACAUGAGGAUCACCCAUGUCAGGAUAUGCCGUUAAAUUAACAUCAACAUACGGGUAGAAGGGACAGCGU [1st #4] (Eterna round: R97, puzzle: Exclusion 1); 30 nM

Hey, can you go through the list below and give me apparent KD of MS2 coat protein for every item?
1. GUUUGAUUAGGAUAUACAUGAGGAUCACCCAUGUGUCCCAGUUUAGAAAUAGACAAAAGUAGAAGGGAUUAGAU [Starry 2] (Eterna round: R97, puzzle: Exclusion 3)
2. UUUAUGUAAGGAUAUAUGAGUCACGGAAAUAAACCGUGAAGAUAGAAGGUACAUGAGGAUCACCCAUGUAAGGC [Mod of Anonveat 8 - Jieux - Exclusion 4] (Eterna round: R97, puzzle: Exclusion 4)

["37.8 nM", "40.1 nM"]

Just for reference, the supplement of paper PMC9170038 is where these values come from.
